# Run description: Hepatocyte stability assay (mouse)
# Type: in vitro ADME
# Test parameters: mouse, cryopreserved hepatocytes, 10 μM compound, 60 min, read-out: T½
Value type: half-life at 10 μM (h)

{"Mol smiles": "C=C(CC(=O)OC1(c2ccc(C(F)(F)F)cc2)CC1)C(=O)O", "Censoring sign": "=", "Assay result": 1.18}
{"Mol smiles": "C=C(CC(=O)OC1(c2ccc(Br)cc2)CCC1)C(=O)O", "Censoring sign": "=", "Assay result": 1.13}
{"Mol smiles": "C=C(CC(=O)O[C@]1(c2ccc(C(F)(F)F)cc2)C[C@H](C)C1)C(=O)O", "Censoring sign": "=", "Assay result": 2.6}
{"Mol smiles": "C=C(CC(=O)O[C@]1(c2ccc(C(F)(F)F)cc2)C[C@H](C#N)C1)C(=O)O", "Censoring sign": "=", "Assay result": 4.87}
{"Mol smiles": "C=C(CC(=O)OCc1ccc(C(F)(F)F)cc1)C(=O)O", "Censoring sign": "=", "Assay result": 0.617}
{"Mol smiles": "C=C(CC(=O)OC1(c2ccc(S(F)(F)(F)(F)F)cc2)CCC1)C(=O)O", "Censoring sign": "=", "Assay result": 0.633}
{"Mol smiles": "C=C(CC(=O)OC1(c2ccc(C(F)(F)F)cc2)COC1)C(=O)O", "Censoring sign": "=", "Assay result": 2.42}
{"Mol smiles": "C=C(CC(=O)OC1(c2ccc(C(F)(F)F)cc2)CCOCC1)C(=O)O", "Censoring sign": ">", "Assay result": 7.67}
{"Mol smiles": "C=C(CC(=O)OC1(c2ccc(C(F)(F)F)cc2)CCC1)C(=O)O", "Censoring sign": "=", "Assay result": 2.52}
